# System: SW620 cells (KRAS G12V)
# EXPERIMENTAL DETAILS: Cell-based pERK HTRF assay in SW620 cell (Biological Example 4)
# ASSAY CONTEXT: Homo sapiens, SW-620, SW620 (KRAS G12V) cells
pIC50: −log10 of the molar value.
TEST READOUT: pIC50

Enquiry: // output pIC50; input N#Cc1c(N)sc2c(F)ccc(-c3c(C(F)(F)F)cc4c(N(C5CC5)[C@H]5CCS(=O)(=O)C5)nc(OC[C@@]56CCCN5C[C@H](F)C6)nc4c3F)c12 ; system SW620 cells (KRAS G12V)
Return: 6.00 to 7.00

Enquiry: // output pIC50; input CCN(c1nc(OC[C@@]23CCCN2C[C@H](F)C3)nc2c(F)c(-c3ccc(F)c4sc(N)c(C#N)c34)c(C(F)(F)F)cc12)[C@H]1CCN(C(=O)[C@@H]2CCO2)[C@@H]1C (atropisomer, axis not shown) ; system SW620 cells (KRAS G12V)
Return: > 7.00

Enquiry: // output pIC50; input CCN(c1nc(OC[C@@]23CCCN2C[C@H](F)C3)nc2c(F)c(-c3ccc(F)c4sc(N)c(C#N)c34)c(C(F)(F)F)cc12)[C@H]1CCN(C(=O)c2cccs2)C1 (atropisomer, axis not shown) ; system SW620 cells (KRAS G12V)
Return: > 7.00

Enquiry: // output pIC50; input CCN(c1nc(OC[C@@]23CCCN2C[C@H](F)C3)nc2c(F)c(-c3ccc(F)c4sc(N)c(C#N)c34)c(C(F)(F)F)cc12)[C@H]1CCN(C(=O)N(C)C)[C@@H]1COC (atropisomer, axis not shown) ; system SW620 cells (KRAS G12V)
Return: > 7.00

The origin of these recorded values is patent US20260042764A1.
